System: PfAP2-I AP2 domain 3 (GST-tagged)
Assay: gcPBM binding intensity (ln(normalized median fluorescence intensity)); higher = stronger DNA binding
The full ranking holds about 25,000 sequences; the median of “ln(normalized median fluorescence intensity)” is about 7.9, and the highest 2% start at about 11. Only a selection was taken, and the highest values are over-represented in it overall.
gcPBM binding intensity (ln) values, listed per item
Would you mind answering with just the numeric figure?

{"macromolecule_sequence": "AGTGCATAATATTTATGTACGTATCACATATATTTT [XGTACX_site5166]", "tested_on": "PfAP2-I AP2 domain 3 (GST-tagged)", "gcPBM binding intensity (ln)": 11.3}
{"macromolecule_sequence": "TATATATTATATATATGTACATATTGTTGTGTATAT [XGTACX_site767]", "tested_on": "PfAP2-I AP2 domain 3 (GST-tagged)", "gcPBM binding intensity (ln)": 7.92}
{"macromolecule_sequence": "TTTTTTTCTCACAATCGTACATAAATACATATATAT [XGTACX_site3150]", "tested_on": "PfAP2-I AP2 domain 3 (GST-tagged)", "gcPBM binding intensity (ln)": 8.12}

Q: Which gcPBM binding intensity (ln) value is on record for ATATAATAAATGTAGGTGCATAAAAATATTTTGTTA [GTGCAC_site9780] ?
Ans: 11

Q: What does the data say about its gcPBM binding intensity (ln)? Entry: TTATATTTGATAGTTTGTACATATAATTATTATCAT [XGTACX_site5676]
Ans: 7.86

Q: Give its gcPBM binding intensity (ln) value. Item: TTTTTATAGAATTTAACACACATTTCATATAAAAAA [CACACA_site7453]
Ans: 7.86

Q: For the sequence shown here, TCACTTTTATAATATAATATTCTATATCTTATTTTT [GTGCAC_negctrl_site717] , give the reported gcPBM binding intensity (ln).
Ans: 7.47

Q: Value lookup for gcPBM binding intensity (ln); key = TTTTGTTATAAATAATGTACATATTTATTTAAAATT [XGTACX_site6610]
Ans: 7.69

Q: Which gcPBM binding intensity (ln) is reported for this sequence? ATTTTTTAAAATATTTGTACATATATAATGCATATA [XGTACX_site7026]
Ans: 8.17

Cited source: the supplement of paper PMC11417369
